Let's look at some variants and their measured exon inclusion enrichment index.
B1: mRNA-splicing (parent)
chain: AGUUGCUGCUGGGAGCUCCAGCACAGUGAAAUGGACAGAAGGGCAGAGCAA

Variants of: B1
PROCEDURE_SUMMARY: exon inclusion enrichment index; higher = more inclusion; WT1 exon 5 minigene, HEK293
Response field accepts a number only; no unit should be typed.

Some variants with known exon inclusion enrichment index results, for comparison:
- MUTANT_ID: "G5A U7C G8A U10C C36U A37C"
  exon inclusion enrichment index: 1.63
- MUTANT_ID: "U10C"
  exon inclusion enrichment index: 2.72
- MUTANT_ID: "C6A U7C C9A U10C C16U U17G"
  exon inclusion enrichment index: 2.04
- MUTANT_ID: "G5A C6A G8U C9A"
  exon inclusion enrichment index: 0.0357
- MUTANT_ID: "G5U G8U C9U A47C G48C"
  exon inclusion enrichment index: 0.139
- MUTANT_ID: "G5A C6G U7G C9A G26A U27A"
  exon inclusion enrichment index: 0.00661

// moving on: another record for exon inclusion enrichment index
Reported exon inclusion enrichment index ( C6A U7A C9A U10A A31G U32C ) = 2.27

Data origin: the RNAGym collection of RNA variant scans (doi:10.1101/gr.219683.116)
